- ASSAY TARGET: T1, full-length human Tau (Tau441; 2N4R), recombinant (human, UniProt P10636 1-758)
- T1 construct: made in E. coli, His6-Smt3 tag removed; biotinylated through amines for Octet and phage work; also called r-Tau; recombinant Tau
- T1 sequence (P10636 other isoform, or with tags, fused parts or gaps limits assumed): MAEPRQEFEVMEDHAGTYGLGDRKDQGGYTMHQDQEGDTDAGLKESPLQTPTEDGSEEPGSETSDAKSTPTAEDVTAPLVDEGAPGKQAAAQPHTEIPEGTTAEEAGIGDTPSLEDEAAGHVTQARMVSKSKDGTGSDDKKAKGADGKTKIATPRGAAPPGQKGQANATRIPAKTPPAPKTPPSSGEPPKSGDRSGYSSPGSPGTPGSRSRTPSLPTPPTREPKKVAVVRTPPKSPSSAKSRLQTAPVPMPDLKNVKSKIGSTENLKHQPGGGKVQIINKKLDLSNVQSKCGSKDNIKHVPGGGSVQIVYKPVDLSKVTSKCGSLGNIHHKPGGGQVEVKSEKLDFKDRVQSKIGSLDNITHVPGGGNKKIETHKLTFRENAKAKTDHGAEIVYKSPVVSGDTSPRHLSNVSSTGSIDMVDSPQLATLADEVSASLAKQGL
- ASSAY NOTES: SPR Biacore
Here, each record is paired with measured pKd data.
# reply with the number alone; pKd is -log10 of concentration in mol/L

>>> quantitative_result("Clone with H1_1 (antibody, V domains shown) VH: EVQLLESGGGLVQPGGSLRLSCAASGFKFSRVGVSWVRQAPGKGLEWVASISGDGGSYIHYADSVKGRFTISRDNSKNTLYLQMNSLRAEDTAVYYCARLPYWGQGTLVTVSS VL: DIVMTQSPDSLAVSLGERATINCKSSQSLLNSGNQKNYLTWYQQKPGQPPKLLIYWASTRESGVPDRFSGSGSGTDFTLTISSLQAEDVAVYYCQQYNSYPLTFGQGTKVEIKR")
9.91
>>> quantitative_result("hu1C7.v2 (S49A) (antibody, V domains shown) VH: EVQLLESGGGLVQPGGSLRLSCAASGFTFSSYGMSWVRQAPGKGLEWVASISGDGGSYIHYADSVKGRFTISRDNSKNTLYLQMNSLRAEDTAVYYCARLPYWGQGTLVTVSS VL: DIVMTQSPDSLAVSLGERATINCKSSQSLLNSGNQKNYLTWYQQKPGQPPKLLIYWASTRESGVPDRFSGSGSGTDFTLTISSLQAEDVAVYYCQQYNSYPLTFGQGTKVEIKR")
8.82
>>> quantitative_result("Clone with H1_5 (antibody, V domains shown) VH: EVQLLESGGGLVQPGGSLRLSCAASVIKWRIYGMSWVRQAPGKGLEWVASISGDGGSYIHYADSVKGRFTISRDNSKNTLYLQMNSLRAEDTAVYYCARLPYWGQGTLVTVSS VL: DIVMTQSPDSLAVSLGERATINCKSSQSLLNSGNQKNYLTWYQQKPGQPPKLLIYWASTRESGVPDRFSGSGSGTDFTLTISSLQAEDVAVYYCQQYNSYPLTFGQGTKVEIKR")
9.74

Turning now to a further binder:
q: Suppose we examine the binder Clone with L1_1 (antibody, V domains shown) VH: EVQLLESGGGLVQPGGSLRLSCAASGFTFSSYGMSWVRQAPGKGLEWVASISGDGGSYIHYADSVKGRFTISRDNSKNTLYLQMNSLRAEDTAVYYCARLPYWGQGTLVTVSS VL: DIVMTQSPDSLAVSLGERATINCKSSHSLYSSRRHKHYLAWYQQKPGQPPKLLIYWASTRESGVPDRFSGSGSGTDFTLTISSLQAEDVAVYYCQQYNSYPLTFGQGTKVEIKR ; what pKd value has been reported?
a: 9.72
